System: 616215-338-R-J1-PDC complex spheroid viability
test name: Anticancer human tumor 616215-338-R-J1-PDC patient-derived colon adenocarcinoma cell line growth inhibition [POLQ]
assay context: second compound 0.0316 µM; first compound 0.1 µM; hits give low values
// reported viability, T/C per item
reported endpoint: viability, T/C

[
  {
    "compound": "O=C(Nc1ccc(O)c(NS(=O)(=O)c2ccc(F)cc2)c1)c1ccc(-c2ccccc2)cc1 + COC1C(OC(N)=O)C(O)C(Oc2ccc3c(O)c(NC(=O)c4ccc(O)c(CC=C(C)C)c4)c(=O)oc3c2C)OC1(C)C",
    "tested system": "616215-338-R-J1-PDC complex spheroid viability",
    "recorded value": "103%"
  },
  {
    "compound": "CCc1cc2c(N3CCc4c(cc(Cn5ccnc5)cc4-c4cn(C)nc4C(F)(F)F)C3=O)cc(C)nc2c(OC)n1 + Cc1cccc(N(C)C(=O)C2C(O)CCN2c2nc(C)cc(C(F)(F)F)c2C#N)c1",
    "tested system": "616215-338-R-J1-PDC complex spheroid viability",
    "recorded value": "120%"
  },
  {
    "compound": "CC(C)n1c(=O)n(C)c2cnc3cc(F)c(-c4ccc(OCCCN5CCCCC5)nc4)cc3c21 + COC1C(OC(N)=O)C(O)C(Oc2ccc3c(O)c(NC(=O)c4ccc(O)c(CC=C(C)C)c4)c(=O)oc3c2C)OC1(C)C",
    "tested system": "616215-338-R-J1-PDC complex spheroid viability",
    "recorded value": "94.6%"
  }
]

====

// reported viability, T/C per item
System: 616215-338-R-J1-PDC complex spheroid viability
test name: Anticancer human tumor 616215-338-R-J1-PDC cell line growth inhibition [POLQ];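 note: spheroids exposed to compounds for one week before readout; percent viability relative to DMSO vehicle wells taken as 100%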
assay context: second compound 0.316 µM; first compound 0.01 µM; hits give low values

[
  {
    "compound": "COc1cccc(OCCCN)c1-c1cc(Nc2cnc(C#N)cn2)n[nH]1 + Cc1cccc(N(C)C(=O)C2C(O)CCN2c2nc(C)cc(C(F)(F)F)c2C#N)c1",
    "unit abbrev": "%",
    "viability, T/C": 86.1
  },
  {
    "compound": "CCc1c2c(nc3ccc(O)cc13)-c1cc3c(c(=O)n1C2)COC(=O)[C@]3(O)CC + COC1C(OC(N)=O)C(O)C(Oc2ccc3c(O)c(NC(=O)c4ccc(O)c(CC=C(C)C)c4)c(=O)oc3c2C)OC1(C)C",
    "unit abbrev": "%",
    "viability, T/C": 95.7
  },
  {
    "compound": "COc1cccc(OCCCN)c1-c1cc(Nc2cnc(C#N)cn2)n[nH]1 + COC1C(OC(N)=O)C(O)C(Oc2ccc3c(O)c(NC(=O)c4ccc(O)c(CC=C(C)C)c4)c(=O)oc3c2C)OC1(C)C",
    "unit abbrev": "%",
    "viability, T/C": 106
  },
  {
    "compound": "C=CCn1c(=O)c2cnc(Nc3ccc(N4CCN(C)CC4)cc3)nc2n1-c1cccc(C(C)(C)O)n1 + COC1C(OC(N)=O)C(O)C(Oc2ccc3c(O)c(NC(=O)c4ccc(O)c(CC=C(C)C)c4)c(=O)oc3c2C)OC1(C)C",
    "unit abbrev": "%",
    "viability, T/C": 106
  },
  {
    "compound": "COc1cccc(OCCCN)c1-c1cc(Nc2cnc(C#N)cn2)n[nH]1 + Nc1ccc(C#CCN(C(=O)Cc2ncc(C(F)(F)F)cc2C(F)(F)F)c2ccc(F)cc2)nn1",
    "unit abbrev": "%",
    "viability, T/C": 97.2
  }
]
